# target.under.test: Cra (catabolite repressor/activator; FruR) (Escherichia coli, UniProt P0ACP1, D148R/A248F/G274R)
# Construct: 2IKS is effector-free regulatory domain used for docking
# method.description: isothermal titration calorimetry
# conditions: 25 °C; 50 mM FBP injected into 15 μM protein (Fig. 5 legend prints 15 mM); effector-binding site; mutant of strain Tang1684
measurement.name: Kd (nM)
// return numeric value only (unit: nM, not printed)

Given the entry O=P(O)(O)OC[C@H]1OC(O)(COP(=O)(O)O)[C@@H](O)[C@@H]1O (stereo partly shown) [fructose-1,6-bisphosphate] , report its measured Kd. 728
